- Tested on: A673/TR/shEF
- TEST_DETAILS: cell viability (LOESS-normalised, relative to median of negative controls) (log2 ratio); higher = more viable cells (less compound effect), active = hit call of the paper (over 3 MAD below the median)
- CONDITION_CONTEXT: 2.5 µM; library screen: screen1; EWS-FLI1 expression: low (doxycycline-induced shRNA knockdown); treatment time: 72 h
About 300 (9.4%) of roughly 3,200 compounds showed activity. What follows is part of a selection rich in actives, with near analogues and random picks from the rest.
Assign labels as follows, please: label 1 for cell viability (log2) below 0.06; label 0 for cell viability (log2) equal to or exceeding 0.06.

These recorded examples may help you get a feel for the data.
INSERT INTO measurements (compound, category_label) VALUES
  ('CCOc1cccc(C(=O)c2ccc(O)c(O)c2O)c1', 'label 0'),
  ('COc1ccc2cc3[n+](cc2c1OC)CCc1cc2c(cc1-3)OCO2', 'label 0'),
  ('COc1cc2c3cc1Oc1c(OC)c(OC)cc4c1C(Cc1ccc(O)c(c1)Oc1ccc(cc1)CC3N(C)CC2)N(C)CC4 (stereo unspecified)', 'label 1'),
  ('CC(=O)/C=C/C1C(C)(O)CCC2C(C)(C)CCCC21C (stereo unspecified)', 'label 0');

Just wondering, is cell viability (log2) of COc1cc(O)cc(/C=C/c2ccccc2)c1 below 0.06?
label 0

Note, next up: COc1ccc2c(c1)OC1CC1(c1ccccc1OC)C2=O (stereo unspecified)
label 1

Note, next up: Cn1cnc([N+](=O)[O-])c1Sc1ncnc2nc[nH]c12
label 0

Note, next up: COc1cc(/C=C/CO)ccc1O
label 0

Note, next up: O=C(O)C1CC(C2CCCCN2)CN2CCCCC12 (stereo unspecified)
label 1

Note, next up: OC[C@@H](O)[C@@H](O[C@@H]1O[C@H](CO)[C@@H](O)[C@H](O)[C@H]1O)[C@H](O)[C@@H](O)CO
label 1

Note, next up: Oc1cc(O)cc(/C=C/c2ccc(O)c(O)c2)c1
label 0

Note, next up: O=C1Nc2ccc(I)cc2/C1=C/c1cc(Br)c(O)c(Br)c1
label 1

Note, next up: Cc1cn2c(=O)c3ccccc3nc2nc1Nc1ccccc1C(=O)O
label 1

Note, next up: O=C1c2ccc(O)cc2OC(c2cc(O)c(O)c(O)c2)C1O (stereo unspecified)
label 0

Note, next up: Oc1ccc2c(c1)OC[C@H]1c3cc4c(cc3O[C@@H]21)OCO4
label 0

Note, next up: COc1ccc2c(=O)c(-c3cc4c(cc3OC)OCO4)coc2c1
label 1

Note, next up: CC(=O)O[C@H]1C(=O)[C@@]2(C)[C@H]([C@H](OC(=O)c3ccccc3)[C@]3(O)C[C@H](OC(=O)[C@H](O)[C@@H](NC(=O)c4ccccc4)c4ccccc4)C(C)=C1C3(C)C)[C@]1(OC(C)=O)CO[C@@H]1C[C@@H]2O
label 1

Note, next up: COc1ccc(C[C@@H](N)C(=O)N[C@H]2[C@@H](O)[C@H](n3cnc4c(N(C)C)ncnc43)O[C@@H]2CO)cc1
label 1

Note, next up: Cn1c(=O)[nH]c(=O)c2[nH]cnc21
label 1

---

- Tested on: A673/TR/shEF
- TEST_DETAILS: cell viability (LOESS-normalised, relative to median of negative controls) (log2 ratio); higher = more viable cells (less compound effect), active = hit call of the paper (over 3 MAD below the median)
- CONDITION_CONTEXT: 2.5 µM; library screen: screen1; EWS-FLI1 expression: high (no doxycycline); treatment time: 72 h
Screen size: about 3,200 compounds; about 300 (9.4%) showed activity. This is one part of a sample in which actives are shown more often than they occur.
Assign labels as follows, please: rule met for cell viability (log2) below 0.1; rule not met for cell viability (log2) equal to or exceeding 0.1.

INSERT INTO results (molecule, assayed_system, category_label) VALUES
  ('CC(=O)O[C@H]1C[C@@]2(C)[C@H](c3ccoc3)OC(=O)[C@H]3O[C@]32[C@@]2(C)C1[C@]1(C)C(C[C@H]2OC(C)=O)C(C)(C)[C@H](OC(C)=O)C[C@@H]1OC(C)=O (stereo partly drawn)', 'A673/TR/shEF', 'rule met'),
  ('CC(=O)O[C@H]1CC[C@@]2(C)C(CC[C@]3(C)C2C(=O)C=C2C4[C@@H](C)[C@H](C)CC[C@]4(C(=O)O)CC[C@]23C)C1(C)C (stereo partly drawn)', 'A673/TR/shEF', 'rule not met'),
  ('C/C1=C\CC(C)(C)/C=C\CC2(C)OC2CC1 (stereo not drawn)', 'A673/TR/shEF', 'rule not met'),
  ('COc1cc(CN2CCN(Cc3ccccc3Br)CC2)cc(OC)c1OC', 'A673/TR/shEF', 'rule not met'),
  ('C=C/C(C)=C\C[C@@H]1[C@@]2(C)CCCC(C)(C)[C@@H]2CC[C@@]1(C)O', 'A673/TR/shEF', 'rule not met'),
  ('COc1cc(OC)c2c(c1)O[C@H](c1cc(OC)c(OC)c(OC)c1)[C@H](OC(=O)c1cc(OC)c(OC)c(OC)c1)C2', 'A673/TR/shEF', 'rule met'),
  ('O=C(O)[C@@H]1C2CC3c4[nH]c5ccccc5c4CCN3CC2CC[C@@H]1O (stereo partly drawn)', 'A673/TR/shEF', 'rule met');

Just wondering, is cell viability (log2) of COC(=O)C[C@H]1C(C)(C)C2(Cl)O[C@@]34CC2C(=O)[C@]1(C)C3CC[C@]1(C)C4=CC(=O)O[C@H]1c1ccoc1 (stereo partly drawn) below 0.1?
rule not met

---

- Test system: A673/TR/shEF
- TEST_DETAILS: cell viability (LOESS-normalised, relative to median of negative controls) (log2 ratio); higher = more viable cells (less compound effect), active = hit call of the paper (over 3 MAD below the median)
- CONDITION_CONTEXT: 0.25 µM; library screen: screen1; EWS-FLI1 expression: high (no doxycycline); treatment time: 72 h
About 300 (9.4%) of roughly 3,200 compounds showed activity. What follows is part of a selection rich in actives, with near analogues and random picks from the rest.
Recorded cell viability (log2) determines the label; the label ranges are low: < 0.06; mid: ≥ 0.06 and < 0.1; high: ≥ 0.1

These recorded examples may help you get a feel for the data.
INSERT INTO measurements (compound, assayed_system, category_label) VALUES
  ('O=C1NC(=O)C(c2ccccc2)(c2ccccc2)N1', 'A673/TR/shEF', 'mid'),
  ('NCCNS(=O)(=O)c1cccc2cnccc12', 'A673/TR/shEF', 'high'),
  ('COc1ccccc1/C=C1\SC(=S)N(C2CCS(=O)(=O)C2)C1=O (stereo unspecified)', 'A673/TR/shEF', 'mid'),
  ('CCC1(c2ccccc2)C(=O)NCNC1=O', 'A673/TR/shEF', 'mid'),
  ('COc1cc2cccc(OC)c(=O)c2c(OC)c1OC', 'A673/TR/shEF', 'mid'),
  ('CC1=C(/C=C/C(C)=C/C=C/C(C)=C/C=C/C=C(C)/C=C/C=C(C)/C=C/[C@@]23O[C@]2(C)C[C@@H](O)CC3(C)C)C(C)(C)C[C@H](O)C1', 'A673/TR/shEF', 'mid'),
  ('COC(=O)c1cc(OC)c(=O)c2c(OC)c(OC)ccc2c1', 'A673/TR/shEF', 'low'),
  ('O=c1c(O)c(-c2cc(O)c(O)c(O)c2)oc2cc(O)ccc12', 'A673/TR/shEF', 'high');

Place this compound in its band: CC1(C)O[C@H]2[C@H](O)C[C@](O)(C(N)=O)C[C@H]2O1
low

Note, next up: COc1ccc(/C=C/C(=O)O)cc1O
mid

---

- Tested on: A673/TR/shEF
- TEST_DETAILS: cell viability (LOESS-normalised, relative to median of negative controls) (log2 ratio); higher = more viable cells (less compound effect), active = hit call of the paper (over 3 MAD below the median)
- CONDITION_CONTEXT: 0.926 µM; library screen: screen3; EWS-FLI1 expression: low (doxycycline-induced shRNA knockdown); treatment time: 72 h
The whole screen tested about 3,200 compounds, of which about 300 (9.4%) showed activity. Many of the other results were omitted from the sample, so actives are more common in it than they were.
MEASURED_PROPERTY: cell viability (log2)
Format: numeric value only, no unit, no commentary.

Look over these answered cases.
INSERT INTO results (molecule, obs_value) VALUES
  ('Cn1cnc2c(F)c(Nc3ccc(Br)cc3Cl)c(C(=O)NOCCO)cc21', 0.113),
  ('C[C@H]1COC2=C1C(=O)C(=O)c1c2ccc2c1CCCC2(C)C', 0.0264),
  ('[Na+].[Na+].[Na+].[O]=[V]([O-])([O-])[O-]', 0.0822),
  ('O=c1cc(-c2cccc3c2Sc2ccccc2S3)oc(N2CCOCC2)c1', 0.00404),
  ('S=c1nc[nH]c2nc[nH]c12', 0.0595),
  ('Cn1c(=O)c2[nH]cnc2n(C)c1=O', 0.0819),
  ('CCC(C)n1ncn(-c2ccc(N3CCN(c4ccc(OC[C@H]5CO[C@](Cn6cncn6)(c6ccc(Cl)cc6Cl)O5)cc4)CC3)cc2)c1=O (stereo partly specified)', 0.0808),
  ('COC(=O)Nc1ccc(-c2nc(N3CCOCC3)c3cnn(C4CCN(C(=O)OC)CC4)c3n2)cc1', -0.0918),
  ('Nc1nc(=S)c2[nH]cnc2[nH]1', 0.102),
  ('CCCSc1ccc2nc(NC(=O)OC)[nH]c2c1', 0.0788);

Attention now turns to another entry.
Sample Nc1ccc(S(=O)(=O)Nc2ncccn2)cc1 — what was its cell viability (log2)?
0.108
